Biological target: T1, His10/Avi Human IL33-01 (human)
T1 chain: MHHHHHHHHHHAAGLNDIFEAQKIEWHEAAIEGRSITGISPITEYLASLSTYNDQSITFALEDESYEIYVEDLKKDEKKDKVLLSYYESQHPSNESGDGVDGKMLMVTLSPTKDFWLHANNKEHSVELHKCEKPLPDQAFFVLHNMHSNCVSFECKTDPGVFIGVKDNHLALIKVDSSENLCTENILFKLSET
Assay: cell-based or functional assay
MEASUREMENT KIND: IC50 (nM) vs. His Avi IL-33, Huvec IL-8 assay

- BINDER: "33_640237-2B IgG1 (antibody, V domains shown, IgG1) VH: EVQLLESGGGLVQPGGSLRLSCAASGFTFSSYAMSWVRQAPGKGLEWVSGIADDFTSTYYADPVKGRFTISRDNSKNTLYLQMNSLRAEDTAVYYCARDLWMMNYAGGLRYPFGYWGQGTMVTVSS VL: SYVLTQPPSVSVSPGQTASITCSGERMGDKYAAWYQQKPGQSPVLVIYRDTKRPSGIPERFSGSNSGNTATLTISGTQAMDEADYYCGVLKQDTGVFGGGTKLTVL"
  MEASUREMENT: 0.067
- BINDER: "33_640237-2 IgG1 (antibody, V domains shown) VH: EVQLLESGGGLVQPGGSLRLSCAASGFTFSSYAMSWVRQAPGKGLEWVSGIADDFTSTYYADPVKGRFTISRDNSKNTLYLQMNSLRAEDTAVYYCARDLWMMNYAGGLRYPFGYWGQGTMVTVSS VL: SYVLTQPPSVSVSPGQTASITCSGERMGDKYAAWYQQKPGQSPVLVIYRDTKRPSGIPERFSGSNSGNTATLTISGTQAMDEADYYCGVLKQDTGVFGGGTKVTVL"
  MEASUREMENT: 0.105
- BINDER: "33_640087-7 IgG1 (antibody, V domains shown, IgG1) VH: EVQLLESGGGLVQPGGSLRLSCAASGFTFSSYAMSWVRQAPGKGLEWVSGISAIDQSTYYADSVKGRFTISRDNSKNTLYLQMNSLRAEDTAVYYCARQKFMQLWGGGLRYPFGYWGQGTMVTVSS VL: SYVLTQPPSVSVSPGQTASITCSGEGMGDKYAAWYQQKPGQSPVLVIYRDTKRPSGIPERFSGSNSGNTATLTISGTQAMDEADYYCGVIQDNTGVFGGGTKVTVL"
  MEASUREMENT: 0.041
